Reported pKi values for the following compounds.
- system.tested: hOx1R (Homo sapiens (Human), UniProt O43613)
- Sequence (O43613 whole entry): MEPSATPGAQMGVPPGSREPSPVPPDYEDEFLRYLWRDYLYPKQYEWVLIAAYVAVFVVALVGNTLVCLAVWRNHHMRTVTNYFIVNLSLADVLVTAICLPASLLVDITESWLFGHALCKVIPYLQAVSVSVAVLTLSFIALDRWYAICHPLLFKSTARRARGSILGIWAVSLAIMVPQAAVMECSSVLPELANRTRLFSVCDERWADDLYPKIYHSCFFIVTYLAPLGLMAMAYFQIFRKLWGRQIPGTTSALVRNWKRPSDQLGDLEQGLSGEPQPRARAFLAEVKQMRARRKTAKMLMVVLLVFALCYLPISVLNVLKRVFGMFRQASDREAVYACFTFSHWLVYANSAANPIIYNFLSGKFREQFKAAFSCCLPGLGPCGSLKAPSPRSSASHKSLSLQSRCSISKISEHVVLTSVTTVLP
- assay.method.text: Calcium accumulation in cells (FLIPR), hOx1R
- Assay type: cell-based
- test.parameters: inhibition of orexin A induced calcium accumulation, Cheng and Prusoff correction
Please express pKi as -log10 of the molar concentration.

Prompt: Quick one: pKi for O=C1N(Cc2c[nH]c3ccccc23)CCCC12CCN(c1nnc(-c3ccccc3)s1)CC2 [Example 171] ?
Completion: 5.61

----------
- system.tested: hOx1R (Homo sapiens (Human))
- assay.method.text: Calcium accumulation in cells (FLIPR), hOx1R
- test.parameters: inhibition of orexin A induced calcium accumulation, Cheng and Prusoff correction
Reported Ki values for the following compounds.
Answer format reminder: number followed by unit.

Reference set (3 entries):
Prompt: Quick one: Ki for COc1ccc(-c2nnc(CN3CCCC4(CCN(c5cnc6ccccc6n5)CC4)C3=O)o2)cc1 ?
Completion: 3690 nM

Prompt: Quick one: Ki for Cc1ccc2oc(N3CCC4(CCCC(=O)N4Cc4cccc5[nH]ccc45)CC3)nc2c1 ?
Completion: 662 nM

Prompt: Quick one: Ki for COCc1cccc(CN2CCCC3(CCN(c4cnc5ccccc5n4)CC3)C2=O)c1 ?
Completion: 2990 nM

New cases:
Prompt: Quick one: Ki for O=C1N(Cc2ccccc2)CCCC12CCN(c1cnc3ccccc3n1)CC2 ?
Completion: 1480 nM

Prompt: Quick one: Ki for Cc1ccc(-n2nccn2)c(CN2CCCC3(CCN(c4cnc5ccccc5n4)CC3)C2=O)c1 ?
Completion: 2290 nM

Prompt: Quick one: Ki for Cc1onc(-c2ccccc2)c1CN1CCCC2(CCN(c3cnc4ccccc4n3)CC2)C1=O ?
Completion: 1560 nM

Prompt: Quick one: Ki for O=C1N(Cc2cccc3c2OCCO3)CCCC12CCN(c1cnc3ccccc3n1)CC2 ?
Completion: 1360 nM

Prompt: Quick one: Ki for O=C1N(Cc2c[nH]c3ccccc23)CCCC12CCN(c1cnc3ccccc3c1)CC2 ?
Completion: 1040 nM

----------
- system.tested: UniProtKB O43614
- assay.method.text: Calcium accumulation in cells (FLIPR), hOx2R
- test.parameters: inhibition of orexin A induced calcium accumulation, Cheng and Prusoff correction
measured.property: Ki (nM)
The figure you give is taken to be in nM; do not add the unit.

Reference set (3 entries):
Prompt: Quick one: Ki for O=C1N(Cc2c[nH]c3ccccc23)CCCC12CCN(c1nnc(-c3ccccc3)s1)CC2 [Example 171] ?
Completion: 786

Prompt: Quick one: Ki for O=C1N(Cc2cccc(-c3cccnc3)c2)CCCC12CCN(c1cnc3ccccc3n1)CC2 [Example 5] ?
Completion: 22

Prompt: Quick one: Ki for O=C1N(Cc2cccc3[nH]ccc23)CCCC12CCN(c1cnc3ccccc3n1)CC2 [Example 3] ?
Completion: 63

# next compound below
Prompt: Quick one: Ki for O=C1N(Cc2ccccc2-c2ccco2)CCCC12CCN(c1cnc3ccccc3n1)CC2 [Example 150] ?
Completion: 45

----------
- system.tested: hOx1R (Homo sapiens (Human), UniProt O43613)
- assay.method.text: Calcium accumulation in cells (FLIPR), hOx1R
- test.parameters: inhibition of orexin A induced calcium accumulation, Cheng and Prusoff correction
Reported Ki values for the following compounds.
Answer format reminder: number followed by unit.

Prompt: Quick one: Ki for Cc1oc(-c2ccoc2)nc1CN1CCCC2(CCN(c3cnc4ccccc4n3)CC2)C1=O ?
Completion: 3790 nM

New cases:
Prompt: Quick one: Ki for O=C1CCCC2(CCN(c3nnc(-c4ccccc4)o3)CC2)N1Cc1cccc2[nH]ccc12 ?
Completion: 509 nM

Prompt: Quick one: Ki for Cc1noc(-c2ccccc2CN2CCCC3(CCN(c4cnc5ccccc5n4)CC3)C2=O)n1 ?
Completion: 1420 nM

Prompt: Quick one: Ki for Cc1nc2ccccc2nc1N1CCC2(CCCN(Cc3c[nH]c4ccccc34)C2=O)CC1 ?
Completion: 1810 nM

Prompt: Quick one: Ki for Cc1noc(-c2ccccc2)c1CN1CCCC2(CCN(c3cnc4ccccc4n3)CC2)C1=O ?
Completion: 1280 nM

Prompt: Quick one: Ki for O=C1N(Cc2c[nH]c3ccccc23)CCCC12CCN(c1nccc(-c3ccccc3)n1)CC2 ?
Completion: 646 nM

Prompt: Quick one: Ki for O=C1N(Cc2cccc(Cl)c2)CCCC12CCN(c1nccc(-c3ccccc3)n1)CC2 ?
Completion: 1700 nM

Prompt: Quick one: Ki for O=C1N(Cc2c[nH]c3ccccc23)CCCC12CCN(c1ncc3ccccc3n1)CC2 ?
Completion: 966 nM

Prompt: Quick one: Ki for N#Cc1ccc(F)c(CN2CCCC3(CCN(c4cnc5ccccc5n4)CC3)C2=O)c1 ?
Completion: 1100 nM

Prompt: Quick one: Ki for O=C1N(Cc2cccc3cnccc23)CCCC12CCN(c1cnc3ccccc3n1)CC2 ?
Completion: 932 nM

Prompt: Quick one: Ki for O=C1N(Cc2cccc(-c3ncccn3)c2)CCCC12CCN(c1cnc3ccccc3n1)CC2 ?
Completion: 373 nM

----------
- system.tested: hOx1R (Homo sapiens (Human))
- assay.method.text: Radioligand binding assay, [125I]orexin A, hOx1R
- test.parameters: radioligand [125I]orexin A, competition
In this scheme, each record receives a class according to its Kd; the ranges are lower segment = under 800 nM, middle segment = from 800 nM up to 2000 nM, upper segment = 2000 nM and over

Prompt: Any idea which band Cn1c(N2CCC3(CCCN(Cc4cccc5ccccc45)C3=O)CC2)nc2ccccc21 is in?
Completion: upper segment

Prompt: Any idea which band O=C1N(Cc2cccc(C(F)(F)F)c2)CCCC12CCN(c1cnc3ccccc3n1)CC2 is in?
Completion: middle segment

Prompt: Any idea which band O=C1N(Cc2ccccc2)CCCC12CCN(c1cnc3ccccc3n1)CC2 is in?
Completion: middle segment

Prompt: Any idea which band O=C1N(Cc2ccccc2)CCCC12CCN(c1nc3ccccc3[nH]1)CC2 is in?
Completion: upper segment

Prompt: Any idea which band O=C1N(Cc2ccc3c(c2)OCCO3)CCCC12CCN(c1cnc3ccccc3n1)CC2 is in?
Completion: upper segment

New cases:
Prompt: Any idea which band O=C1N(Cc2cccc3c2OCO3)CCCC12CCN(c1cnc3ccccc3n1)CC2 is in?
Completion: upper segment

Prompt: Any idea which band O=C1N(Cc2ccc3ccccc3c2)CCCC12CCN(c1cnc3ccccc3n1)CC2 is in?
Completion: upper segment

Prompt: Any idea which band O=C1N(Cc2ccc(C(F)(F)F)cc2)CCCC12CCN(c1cnc3ccccc3n1)CC2 is in?
Completion: upper segment

Prompt: Any idea which band Cc1ccc(C)c(CN2C(=O)CCCC23CCN(c2cnc4ccccc4n2)CC3)c1 is in?
Completion: lower segment

Prompt: Any idea which band Cc1onc(-c2ccccc2)c1CN1CCCC2(CCN(c3cnc4ccccc4n3)CC2)C1=O is in?
Completion: upper segment

----------
Reported pKi values for the following compounds.
- system.tested: hOx2R (Homo sapiens (Human), UniProt O43614)
- Sequence (O43614 whole entry): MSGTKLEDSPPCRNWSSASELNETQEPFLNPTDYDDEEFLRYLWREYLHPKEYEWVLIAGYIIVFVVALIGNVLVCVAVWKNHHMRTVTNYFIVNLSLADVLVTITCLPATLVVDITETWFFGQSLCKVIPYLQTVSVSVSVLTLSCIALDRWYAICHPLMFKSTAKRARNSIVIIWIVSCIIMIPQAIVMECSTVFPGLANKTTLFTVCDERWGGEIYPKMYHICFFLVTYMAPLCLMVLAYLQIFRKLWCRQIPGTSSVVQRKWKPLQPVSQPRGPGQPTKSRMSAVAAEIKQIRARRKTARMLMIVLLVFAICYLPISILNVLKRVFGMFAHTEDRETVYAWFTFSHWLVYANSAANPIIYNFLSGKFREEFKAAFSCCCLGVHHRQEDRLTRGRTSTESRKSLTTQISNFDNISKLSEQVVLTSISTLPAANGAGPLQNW
- assay.method.text: Calcium accumulation in cells (FLIPR), hOx2R
- test.parameters: inhibition of orexin A induced calcium accumulation, Cheng and Prusoff correction
Please express pKi as -log10 of the molar concentration.

Prompt: Quick one: pKi for O=C1N(Cc2nccc3ccccc23)CCCC12CCN(c1cnc3ccccc3n1)CC2 [Example 93] ?
Completion: 6.80

Prompt: Quick one: pKi for O=C1N(Cc2cccc(N3CCCC3)n2)CCCC12CCN(c1cnc3ccccc3n1)CC2 [Example 103] ?
Completion: 5.93

Prompt: Quick one: pKi for O=C1N(Cc2cccc3nonc23)CCCC12CCN(c1cnc3ccccc3n1)CC2 [Example 77] ?
Completion: 7.01

# next compound below
Prompt: Quick one: pKi for Cc1ccc(C)c(CN2CCCC3(CCN(c4cnc5ccccc5n4)CC3)C2=O)c1 [Example 20] ?
Completion: 6.69

----------
- system.tested: hOx1R (Homo sapiens (Human), UniProt O43613)
- assay.method.text: Calcium accumulation in cells (FLIPR), hOx1R
- test.parameters: inhibition of orexin A induced calcium accumulation, Cheng and Prusoff correction
Reported log10 Ki values for the following compounds.
Record value = log10 of Ki given in µM.

Prompt: Quick one: log10 Ki for COc1cccc(-n2cncc2CN2CCCC3(CCN(c4cnc5ccccc5n4)CC3)C2=O)c1 [Example 111] ?
Completion: 0.11

# next compound below
Prompt: Quick one: log10 Ki for COc1ccnc(CN2CCCC3(CCN(c4cnc5ccccc5n4)CC3)C2=O)c1OC [Example 91] ?
Completion: 0.46

----------
Reported inhibition at 10 µM values for the following compounds.
- system.tested: hOx2R (Homo sapiens (Human), UniProt O43614)
- assay.method.text: Calcium accumulation in cells (FLIPR), hOx2R
- Format: cell-based
- test.parameters: measured at a concentration of 10 μM of compound
- Procedure: Calcium Accumulation in Cells (FLIPR): Cells expressing human orexin 1 or human orexin 2 receptors, were seeded at 8,000 cells/well in 384 well black-walled clear bottom, poly-D-lysine coated plates. […] On the day of the experiment, the cells seeded in black plates were treated with assay buffer containing the Ca^2+ sensitive fluorescent dye Fluo-4-AM (2 μM), and probenecid (0.1 mM). […] Fluorescence measurements were then continued every 1 S for 120 S followed by every 4 S for 240 S. […]
The figure you give is taken to be in %; do not add the unit.

Reference set (6 entries):
Prompt: Quick one: inhibition at 10 µM for O=C1N(Cc2ccncc2)CCCC12CCN(c1cnc3ccccc3n1)CC2 ?
Completion: 27

Prompt: Quick one: inhibition at 10 µM for O=C1N(Cc2ccc(C(F)(F)F)nc2)CCCC12CCN(c1cnc3ccccc3n1)CC2 ?
Completion: 12

Prompt: Quick one: inhibition at 10 µM for Cc1noc(C)c1CN1CCCC2(CCN(c3cnc4ccccc4n3)CC2)C1=O ?
Completion: 22

Prompt: Quick one: inhibition at 10 µM for Cc1cc(CN2CCCC3(CCN(c4cnc5ccccc5n4)CC3)C2=O)no1 ?
Completion: 25

Prompt: Quick one: inhibition at 10 µM for Cc1cc(CN2CCCC3(CCN(c4cnc5ccccc5n4)CC3)C2=O)nn1C ?
Completion: 46

Prompt: Quick one: inhibition at 10 µM for O=C1N(Cc2nnc3ccccn23)CCCC12CCN(c1cnc3ccccc3n1)CC2 ?
Completion: 35

New cases:
Prompt: Quick one: inhibition at 10 µM for O=C1N(Cc2ccc3nonc3c2)CCCC12CCN(c1cnc3ccccc3n1)CC2 ?
Completion: 24

Prompt: Quick one: inhibition at 10 µM for Cc1ccc2nc(N3CCC4(CCCN(Cc5c[nH]c6ccccc56)C4=O)CC3)sc2c1 ?
Completion: 35
